Each item that follows carries a reported pIC50.
Target: human Nav1.8 (Homo sapiens)
Sequence (Q9Y5Y9 whole entry): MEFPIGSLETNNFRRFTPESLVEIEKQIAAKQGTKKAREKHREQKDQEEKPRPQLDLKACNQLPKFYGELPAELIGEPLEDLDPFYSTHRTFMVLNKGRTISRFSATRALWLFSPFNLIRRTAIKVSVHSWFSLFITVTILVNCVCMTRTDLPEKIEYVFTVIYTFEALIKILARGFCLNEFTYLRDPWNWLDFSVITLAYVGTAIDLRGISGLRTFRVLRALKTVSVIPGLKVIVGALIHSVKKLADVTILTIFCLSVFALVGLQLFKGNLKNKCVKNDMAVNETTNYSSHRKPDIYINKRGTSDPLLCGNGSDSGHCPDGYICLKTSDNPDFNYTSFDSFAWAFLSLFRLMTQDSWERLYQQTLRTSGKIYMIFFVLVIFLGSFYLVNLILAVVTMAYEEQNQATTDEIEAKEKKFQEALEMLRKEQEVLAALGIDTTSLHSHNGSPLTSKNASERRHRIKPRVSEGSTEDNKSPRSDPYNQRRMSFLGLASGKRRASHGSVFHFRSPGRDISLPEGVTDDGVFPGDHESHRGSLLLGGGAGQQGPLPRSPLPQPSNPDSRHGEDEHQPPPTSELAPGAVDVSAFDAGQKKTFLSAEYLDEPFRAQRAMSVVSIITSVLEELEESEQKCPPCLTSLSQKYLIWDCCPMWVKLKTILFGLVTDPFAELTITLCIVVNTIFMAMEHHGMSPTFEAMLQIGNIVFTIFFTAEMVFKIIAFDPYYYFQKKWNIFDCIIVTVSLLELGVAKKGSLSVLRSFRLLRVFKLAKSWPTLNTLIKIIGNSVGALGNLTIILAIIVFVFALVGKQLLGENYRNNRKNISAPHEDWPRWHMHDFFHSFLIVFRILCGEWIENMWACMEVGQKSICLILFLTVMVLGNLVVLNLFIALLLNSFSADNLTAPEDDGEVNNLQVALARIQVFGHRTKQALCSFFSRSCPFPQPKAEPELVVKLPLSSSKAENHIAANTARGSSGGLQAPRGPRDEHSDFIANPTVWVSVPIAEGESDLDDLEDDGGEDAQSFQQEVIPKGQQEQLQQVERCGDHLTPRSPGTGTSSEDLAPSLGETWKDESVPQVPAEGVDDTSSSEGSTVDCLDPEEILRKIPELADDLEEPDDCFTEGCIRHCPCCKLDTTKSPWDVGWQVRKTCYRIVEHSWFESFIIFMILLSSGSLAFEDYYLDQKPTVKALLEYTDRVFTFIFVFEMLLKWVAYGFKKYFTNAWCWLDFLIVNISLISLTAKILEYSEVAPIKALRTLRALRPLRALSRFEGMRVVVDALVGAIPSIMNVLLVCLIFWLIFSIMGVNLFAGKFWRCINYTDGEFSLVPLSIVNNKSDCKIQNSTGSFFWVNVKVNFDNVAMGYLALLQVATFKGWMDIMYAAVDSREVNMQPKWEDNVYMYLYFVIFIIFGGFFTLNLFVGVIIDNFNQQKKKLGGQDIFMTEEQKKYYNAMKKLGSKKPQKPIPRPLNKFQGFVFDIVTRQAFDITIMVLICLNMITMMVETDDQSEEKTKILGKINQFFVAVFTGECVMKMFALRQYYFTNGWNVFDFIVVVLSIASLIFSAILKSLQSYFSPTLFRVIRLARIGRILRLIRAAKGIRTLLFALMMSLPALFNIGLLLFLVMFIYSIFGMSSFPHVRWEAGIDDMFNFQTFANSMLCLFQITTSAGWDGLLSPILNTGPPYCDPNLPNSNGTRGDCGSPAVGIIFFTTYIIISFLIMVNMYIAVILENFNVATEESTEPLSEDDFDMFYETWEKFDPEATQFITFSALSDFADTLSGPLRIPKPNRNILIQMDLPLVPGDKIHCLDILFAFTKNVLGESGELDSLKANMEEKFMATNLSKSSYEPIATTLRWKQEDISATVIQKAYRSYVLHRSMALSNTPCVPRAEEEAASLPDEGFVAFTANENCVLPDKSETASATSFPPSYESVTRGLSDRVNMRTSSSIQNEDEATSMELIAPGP
Assay: Membrane potential increase-inhibitory action on TTX-resistant Na channels in cells expressing human Nav1.8 gene (deltamethrin stimulation)
Please note pIC50 is a logarithmic value: minus log10 of concentration in mol/L. Answer with that number alone.

The examples below pair each entry with its known result.
Compound string | pIC50
Cc1ccccc1OC[C@@H]1C[C@H]2CC[C@@H](C1)N2CCCCn1nc2ccccn2c1=O | 5.43
CCn1c(CCCN2[C@@H]3CC[C@H]2C[C@@H](OCc2ccccc2F)C3)nn(C)c1=O | 4.92
O=c1n(CCCN2[C@@H]3CC[C@H]2C[C@@H](OCc2ccccc2F)C3)nc2n1CCS2 | 5.24
Cc1nc2ccccn2c(=O)c1CCN1[C@@H]2CC[C@H]1C[C@@H](OCc1ccccc1F)C2 | 5.06

Note to self: pIC50 recorded for Cc1nc(C)n(C)c(=O)c1CCN1[C@@H]2CC[C@H]1C[C@@H](OCc1ccccc1F)C2 was 5.12

Note to self: pIC50 recorded for Cc1nn(C[C@H](O)CN2[C@@H]3CC[C@H]2C[C@@H](OCc2ccc(F)cc2)C3)c(=O)n1-c1cnn(C)c1 was 4.80

Note to self: pIC50 recorded for O=c1n(CC[C@H](O)CN2[C@@H]3CC[C@H]2C[C@@H](OCc2ccccc2F)C3)nc2ccccn12 was 5.89
